Attribute: % Activation
tested_on: ΔF508-CFTR (Homo sapiens, UniProt P13569, DEL508-508)
Construct: host or cells: CFBE41o-, doxycycline-inducible
Sequence (P13569 with tags, fused parts or gaps DEL508-508): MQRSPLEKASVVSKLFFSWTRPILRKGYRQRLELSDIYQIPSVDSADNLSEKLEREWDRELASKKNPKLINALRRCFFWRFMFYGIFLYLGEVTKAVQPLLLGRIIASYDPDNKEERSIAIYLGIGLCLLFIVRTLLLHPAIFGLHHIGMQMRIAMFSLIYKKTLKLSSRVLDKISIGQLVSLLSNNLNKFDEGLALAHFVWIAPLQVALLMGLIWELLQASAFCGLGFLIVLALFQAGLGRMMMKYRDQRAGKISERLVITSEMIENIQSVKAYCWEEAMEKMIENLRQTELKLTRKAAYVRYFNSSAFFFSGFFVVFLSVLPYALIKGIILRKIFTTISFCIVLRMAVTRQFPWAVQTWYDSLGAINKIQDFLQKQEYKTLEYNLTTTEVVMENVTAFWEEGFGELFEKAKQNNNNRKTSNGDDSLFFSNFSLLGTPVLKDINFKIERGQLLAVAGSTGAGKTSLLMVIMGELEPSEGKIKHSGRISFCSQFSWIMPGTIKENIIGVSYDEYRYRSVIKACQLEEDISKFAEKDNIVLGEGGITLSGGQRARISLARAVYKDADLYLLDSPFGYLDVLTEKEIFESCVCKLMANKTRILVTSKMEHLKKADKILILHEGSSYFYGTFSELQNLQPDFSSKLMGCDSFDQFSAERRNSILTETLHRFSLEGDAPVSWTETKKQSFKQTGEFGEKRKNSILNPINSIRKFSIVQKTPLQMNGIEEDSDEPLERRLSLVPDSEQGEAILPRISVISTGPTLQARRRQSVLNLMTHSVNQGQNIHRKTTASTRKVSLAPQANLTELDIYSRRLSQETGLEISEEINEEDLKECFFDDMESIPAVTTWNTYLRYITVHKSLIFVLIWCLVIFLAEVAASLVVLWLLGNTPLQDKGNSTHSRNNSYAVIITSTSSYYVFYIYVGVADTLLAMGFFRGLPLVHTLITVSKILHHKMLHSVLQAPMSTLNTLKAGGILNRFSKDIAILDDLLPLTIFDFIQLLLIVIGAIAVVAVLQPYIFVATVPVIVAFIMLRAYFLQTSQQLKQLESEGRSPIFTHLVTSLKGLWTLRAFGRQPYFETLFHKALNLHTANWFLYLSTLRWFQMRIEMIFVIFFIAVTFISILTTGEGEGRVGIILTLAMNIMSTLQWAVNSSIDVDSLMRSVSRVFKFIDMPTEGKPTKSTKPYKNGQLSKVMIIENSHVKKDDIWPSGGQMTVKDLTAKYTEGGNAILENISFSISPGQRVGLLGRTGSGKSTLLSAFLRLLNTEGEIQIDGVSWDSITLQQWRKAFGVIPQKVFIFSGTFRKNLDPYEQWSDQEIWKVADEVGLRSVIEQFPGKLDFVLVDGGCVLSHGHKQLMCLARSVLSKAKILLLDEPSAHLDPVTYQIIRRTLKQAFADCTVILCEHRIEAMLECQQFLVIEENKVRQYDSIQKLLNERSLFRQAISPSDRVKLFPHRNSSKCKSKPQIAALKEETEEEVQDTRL
assay_overview: CFTR cell surface levels using HRP-tagged ΔF508-CFTR expressing CFBE cells, in the presence of a co-corrector
Format: cell-based
measurement_conditions: HRP-tagged ΔF508-CFTR expressing CFBE cells, in the presence of 3 μM co-corrector
observation_type: % Activation (%)

{"columns": ["compound", "observation_type", "result_value"],
 "data": [
  ["Cc1cccc(-n2nc(C(C)C)c3c(N4CCCCC4)cc(C(=O)O)nc32)c1", "% Activation", 399.73],
  ["Cc1nn(-c2ccccc2)c2nc(C(=O)O)cc(-c3ccc(N4CC(O)C4)cc3)c12", "% Activation", 371.1],
  ["N#CCCN1CCN(c2cc(C(=O)O)nc3c2c(C2CCC2)nn3-c2ccccc2)CC1", "% Activation", 348],
  ["O=C(O)c1cc(OC2CCCCCCC2)c2c(C3CCC3)nn(-c3ccccc3)c2n1", "% Activation", 314.65],
  ["COC1CCN(c2ccc(-c3cc(C(=O)O)nc4c3c(C(C)C)nn4C3CCCCC3)cn2)C1 (stereo not shown)", "% Activation", 396.65],
  ["Cc1nn(-c2ccccc2)c2nc(C(=O)O)cc(N3CCCOCC3)c12", "% Activation", 150.3],
  ["CN(C)CCOCCOc1cc(C(=O)O)nc2c1c(C1CCC1)nn2-c1ccccc1", "% Activation", 176.9],
  ["CC(C)c1nn(-c2ccc(F)cc2)c2nc(C(=O)O)cc(N3CCN(CCO)CC3)c12", "% Activation", 141.8],
  ["COCC1(F)CCN(c2cc(C(=O)O)nc3c2c(C(C)C)nn3-c2ccc(F)cc2)CC1", "% Activation", 315.5],
  ["Cc1cccc(-n2nc(C(C)C)c3c(N4CCC(F)(F)CC4)cc(C(=O)O)nc32)c1", "% Activation", 261],
  ["CC(O)CN1CCC(N2CCN(c3cc(C(=O)O)nc4c3c(C(C)C)nn4-c3ccc(F)cc3)CC2)CC1 (stereo not shown)", "% Activation", 126.1],
  ["Cc1nn(-c2ccccc2)c2nc(C(=O)O)cc(N3CCC4(CCCO4)C3)c12 (stereo not shown)", "% Activation", 195.5],
  ["CC(C)c1nn(-c2ccc(F)cc2)c2nc(C(=O)O)cc(N3CCC(O)(CN(C)C(C)C)CC3)c12", "% Activation", 186.5],
  ["COCCN(C)c1ccc(-c2cc(C(=O)O)nc3c2c(C(C)C)nn3-c2cccc(N3CCCC3)c2)cc1", "% Activation", 613.4],
  ["CC(C)c1nn(-c2cccc(C(F)(F)F)c2)c2nc(C(=O)O)cc(-c3ccc(N(C)C4CCOCC4)nc3)c12", "% Activation", 464.35],
  ["CC(C)c1nn(-c2cccc(N(C)C)c2)c2nc(C(=O)O)cc(-c3cnc(N4CCC(C#N)CC4)nc3)c12", "% Activation", 602.4]
]}

* * *

tested_on: ΔF508-CFTR (Homo sapiens, UniProt P13569, DEL508-508)
Construct: host or cells: CFBE41o-, doxycycline-inducible
assay_overview: CFTR cell surface levels using HRP-tagged ΔF508-CFTR expressing CFBE cells, intrinsic corrector capacity
Type: cell-based
measurement_conditions: HRP-tagged ΔF508-CFTR CFBE41o- cells, compounds alone (intrinsic corrector capacity), 20 hours at 33° C.; positive control 3 μM corrector

{"columns": ["smiles_notation", "tested_on", "% Activation [%]"],
 "data": [
  ["CC(C)c1nn(C2CCCCC2)c2nc(C(=O)O)cc(-c3ccc4c(c3)CNC4=O)c12", "ΔF508-CFTR (Homo sapiens, UniProt P13569, DEL508-508)", 118.28],
  ["C=C(C)c1nn(-c2ccccc2)c2nc(C(=O)O)cc(-c3ccc(N4CCOCC4)cc3)c12", "ΔF508-CFTR (Homo sapiens, UniProt P13569, DEL508-508)", 163.7],
  ["Cc1nn(-c2ccccc2)c2nc(C(=O)O)cc(N3CCC(C(=O)N4CCCC4)CC3)c12", "ΔF508-CFTR (Homo sapiens, UniProt P13569, DEL508-508)", 29.97],
  ["CC(C)c1nn(C2CCCCC2)c2nc(C(=O)O)cc(-c3ccc(N(C)C4CCOCC4)cc3)c12", "ΔF508-CFTR (Homo sapiens, UniProt P13569, DEL508-508)", 234.6],
  ["CC(C)c1nn(-c2cccc(N(C)C)c2)c2nc(C(=O)O)cc(N3CCC(C#N)CC3)c12", "ΔF508-CFTR (Homo sapiens, UniProt P13569, DEL508-508)", 239.4],
  ["COCCOC1CCN(c2cc(C(=O)O)nc3c2c(C)nn3-c2ccccc2)CC1", "ΔF508-CFTR (Homo sapiens, UniProt P13569, DEL508-508)", 134.15],
  ["CC(C)c1nn(C2CCCCC2)c2nc(C(=O)O)cc(-c3ccc(N(C)C)nc3)c12", "ΔF508-CFTR (Homo sapiens, UniProt P13569, DEL508-508)", 175.6],
  ["CC(C)c1nn(-c2cccc(N3CCOCC3)c2)c2nc(C(=O)O)cc(-c3ccc(N4CCC(C#N)CC4)nc3)c12", "ΔF508-CFTR (Homo sapiens, UniProt P13569, DEL508-508)", 415],
  ["CC(C)c1nn(-c2cccc(N(C)C)c2)c2nc(C(=O)O)cc(-c3ccc(N4CCC(C#N)CC4)nc3)c12", "ΔF508-CFTR (Homo sapiens, UniProt P13569, DEL508-508)", 364.43],
  ["Cc1nn(-c2cc(F)cc(F)c2)c2nc(C(=O)O)cc(-c3ccc(N4CCOCC4)cc3)c12", "ΔF508-CFTR (Homo sapiens, UniProt P13569, DEL508-508)", 116.55],
  ["CC(C)c1nn(C2CCCCC2)c2nc(C(=O)O)cc(-c3cnc(N(C)C4CCN(C(=O)OC(C)(C)C)CC4)nc3)c12", "ΔF508-CFTR (Homo sapiens, UniProt P13569, DEL508-508)", 114.2],
  ["COCCN(C)c1ncc(-c2cc(C(=O)O)nc3c2c(C(C)C)nn3C2CCCCC2)cn1", "ΔF508-CFTR (Homo sapiens, UniProt P13569, DEL508-508)", 227],
  ["Cc1nn(-c2ccccc2)c2nc(C(=O)O)cc(-c3ccc(N(C)C4CCOCC4)nc3)c12", "ΔF508-CFTR (Homo sapiens, UniProt P13569, DEL508-508)", 190.23],
  ["CC(C)c1nn(C2CCCCC2)c2nc(C(=O)O)cc(-c3ccc(N4CCC(C#N)CC4)nc3)c12", "ΔF508-CFTR (Homo sapiens, UniProt P13569, DEL508-508)", 249.55],
  ["O=C(O)c1cc(-c2ccc(N3CCOCC3)cc2)c2c(C3CCC3)nn(-c3cccc(C(F)(F)F)c3)c2n1", "ΔF508-CFTR (Homo sapiens, UniProt P13569, DEL508-508)", 212.07]
]}

* * *

tested_on: ΔF508-CFTR (Homo sapiens, UniProt P13569, DEL508-508)
Construct: host or cells: CFBE41o-, doxycycline-inducible
assay_overview: CFTR cell surface levels using HRP-tagged ΔF508-CFTR expressing CFBE cells, intrinsic corrector capacity
Type: cell-based
measurement_conditions: HRP-tagged ΔF508-CFTR CFBE41o- cells, compounds alone (intrinsic corrector capacity), 20 hours at 33° C.; read-out: EC50
EC50 for assorted molecules
observation_type: EC50 (µM)

{"columns": ["molecule", "cmp", "result_value"],
 "data": [
  ["COC1CCN(c2ccc(-c3cc(C(=O)O)nc4c3c(C(C)C)nn4C3CCCCC3)cn2)C1 (stereo not shown)", "=", 1.18],
  ["COc1ccc(-c2cc(C(=O)O)nc3c2c(C)nn3CCC#N)cc1", ">", 10],
  ["Cc1nn(-c2ccccc2)c2nc(C(=O)O)cc(N3CCN(CC(=O)N(C)C)CC3)c12", ">", 10],
  ["CC(C)c1nn(-c2ccc(F)cc2)c2nc(C(=O)O)cc(-c3cnc(N(C)C4CCOCC4)nc3)c12", "=", 0.485],
  ["CC(C)c1nn(C2CCCCC2)c2nc(C(=O)O)cc(-c3ccc4c(c3)CNC4=O)c12", "=", 2.28],
  ["Cc1nn(-c2ccccc2)c2nc(C(=O)O)cc(OCC(F)C3CCOCC3)c12 (stereo not shown)", "=", 1.67],
  ["CC(C)c1nn([C@@H]2CCC[C@@H](OCc3ccccc3)C2)c2nc(C(=O)O)cc(-c3ccc(N4CCOCC4)cc3)c12", "=", 0.525],
  ["N#CCN1CC(c2nn(-c3ccccc3)c3nc(C(=O)O)cc(-c4ccc(N5CCOCC5)cc4)c23)C1", "=", 3.34],
  ["CN(c1ccc(-c2cc(C(=O)O)nc3c2c(C2CCC2)nn3-c2cccc(N3CCCC3)c2)cn1)C1CCOCC1", "=", 0.698],
  ["Cc1nn(-c2ccccc2)c2nc(C(=O)O)cc(N3CCC(O)CC3)c12", ">", 10],
  ["Cc1cccc(-n2nc(C(C)C)c3c(N4CCC5(CCCCC5)CC4)cc(C(=O)O)nc32)c1", "=", 1.17],
  ["CC(C)c1nn(-c2cccc(N3CCCC3)c2)c2nc(C(=O)O)cc(-c3ccc(N4CCOCC4)cc3)c12", "=", 0.459],
  ["CC(C)c1nn(-c2cc(F)cc(F)c2)c2nc(C(=O)O)cc(-c3cnc(N(C)C4CCOCC4)nc3)c12", "=", 0.695],
  ["COCCC1(COc2cc(C(=O)O)nc3c2c(C)nn3-c2ccccc2)CC1", "=", 1.67],
  ["COc1cc(N2CCOCC2)ccc1-c1cc(C(=O)O)nc2c1c(C)nn2-c1ccccc1", "=", 1.53],
  ["COCCC1CCN(c2cc(C(=O)O)nc3c2c(C(C)C)nn3-c2cccc(C)c2)CC1", "=", 0.68]
]}
